This section presents compounds with their documented pIC50 values.
TARGET ENTITY: UniProtKB P31749
Sequence (P31749 whole entry, species assumed): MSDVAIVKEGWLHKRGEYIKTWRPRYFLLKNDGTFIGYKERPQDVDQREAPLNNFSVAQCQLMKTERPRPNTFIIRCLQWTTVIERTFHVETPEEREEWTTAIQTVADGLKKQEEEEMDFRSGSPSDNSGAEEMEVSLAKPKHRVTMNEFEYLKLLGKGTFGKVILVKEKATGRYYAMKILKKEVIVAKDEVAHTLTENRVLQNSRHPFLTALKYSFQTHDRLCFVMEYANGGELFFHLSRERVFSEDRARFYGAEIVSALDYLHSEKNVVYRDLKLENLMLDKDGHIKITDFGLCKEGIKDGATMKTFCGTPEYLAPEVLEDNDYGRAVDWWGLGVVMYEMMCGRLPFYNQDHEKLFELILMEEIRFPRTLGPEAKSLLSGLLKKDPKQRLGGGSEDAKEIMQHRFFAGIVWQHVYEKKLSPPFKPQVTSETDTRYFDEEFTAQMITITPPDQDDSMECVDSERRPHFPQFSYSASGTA
PROTOCOL NOTES: Inhibition of PKB
Assay type: biochemical
pIC50: −log10 of the molar value.

Answered examples (2):
Given the entry `O=C(c1ccccn1)c1cc(=O)c2c(O)cc(O)cc2o1` , report its measured pIC50.
< 5.00

Given the entry `O=C(c1cc(=O)c2cc(O)ccc2o1)c1nc2ccccc2s1` , report its measured pIC50.
< 5.00

Moving on to the next compound.
Given the entry `Cn1ccnc1C(=O)c1cc(=O)c2c(O)cc(O)cc2o1` , report its measured pIC50.
< 5.00

###

TARGET ENTITY: UniProt:Q02763
Sequence (Q02763 23-1124, species assumed): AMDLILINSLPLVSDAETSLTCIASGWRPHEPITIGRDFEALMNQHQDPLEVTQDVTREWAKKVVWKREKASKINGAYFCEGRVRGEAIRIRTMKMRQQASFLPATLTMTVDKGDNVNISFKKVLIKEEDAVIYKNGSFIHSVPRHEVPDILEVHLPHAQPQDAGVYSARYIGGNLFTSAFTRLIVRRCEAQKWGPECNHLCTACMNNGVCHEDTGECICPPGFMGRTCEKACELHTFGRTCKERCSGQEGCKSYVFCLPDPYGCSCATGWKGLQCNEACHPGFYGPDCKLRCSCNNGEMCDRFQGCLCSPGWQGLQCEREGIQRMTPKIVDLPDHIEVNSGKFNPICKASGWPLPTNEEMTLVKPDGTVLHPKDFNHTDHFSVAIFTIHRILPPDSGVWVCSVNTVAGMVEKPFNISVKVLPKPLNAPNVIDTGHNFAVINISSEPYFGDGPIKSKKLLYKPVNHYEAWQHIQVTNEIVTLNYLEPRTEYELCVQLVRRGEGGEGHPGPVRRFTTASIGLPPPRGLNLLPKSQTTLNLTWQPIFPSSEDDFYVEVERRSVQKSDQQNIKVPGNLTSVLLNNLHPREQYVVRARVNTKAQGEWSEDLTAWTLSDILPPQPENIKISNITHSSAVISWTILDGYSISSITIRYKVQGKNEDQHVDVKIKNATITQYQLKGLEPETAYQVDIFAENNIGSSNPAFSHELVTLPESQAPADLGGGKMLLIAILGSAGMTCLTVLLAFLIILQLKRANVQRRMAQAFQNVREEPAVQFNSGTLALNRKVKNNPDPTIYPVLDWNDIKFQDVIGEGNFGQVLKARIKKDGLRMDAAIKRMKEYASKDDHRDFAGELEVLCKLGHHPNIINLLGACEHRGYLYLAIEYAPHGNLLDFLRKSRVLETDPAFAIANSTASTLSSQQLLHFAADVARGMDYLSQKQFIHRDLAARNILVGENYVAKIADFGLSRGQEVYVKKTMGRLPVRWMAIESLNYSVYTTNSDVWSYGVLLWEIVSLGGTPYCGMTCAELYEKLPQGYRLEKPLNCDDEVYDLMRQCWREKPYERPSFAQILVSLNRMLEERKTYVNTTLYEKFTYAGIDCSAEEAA
PROTOCOL NOTES: Inhibition of Tie2
Assay type: biochemical
PROPERTY LABEL: IC50

Given the entry `O=C(c1ccccn1)c1cc(=O)c2c(O)cc(O)cc2o1` , report its measured IC50.
> 10 µM

Given the entry `O=C(c1ccccn1)c1cc(=O)c2cc(O)ccc2o1` , report its measured IC50.
> 10 µM

More entries:
Given the entry `O=C(c1cc(=O)c2cc(O)ccc2o1)c1nc2ccccc2s1` , report its measured IC50.
> 10 µM

###

This section presents compounds with their documented IC50 values.
Test system: RAF
PROTOCOL NOTES: Inhibition of RAF
Type: biochemical

Given the entry `O=C(c1ccccn1)c1cc(=O)c2cc(O)ccc2o1` , report its measured IC50.
> 1000 nM

Given the entry `Cn1ccnc1C(=O)c1cc(=O)c2cc(O)ccc2o1` , report its measured IC50.
> 1000 nM

Given the entry `O=C(c1ccccn1)c1cc(=O)c2c(O)cc(O)cc2o1` , report its measured IC50.
> 1000 nM

Given the entry `O=C(c1cc(=O)c2cc(O)ccc2o1)c1nc2ccccc2s1` , report its measured IC50.
> 1000 nM

Given the entry `Cn1ccnc1C(=O)c1cc(=O)c2c(O)cc(O)cc2o1` , report its measured IC50.
> 1000 nM

Moving on to the next compound.
Given the entry `O=C(c1cc(=O)c2cc(O)ccc2o1)c1ncc(Cl)nc1Cl` , report its measured IC50.
> 1000 nM

// provenance: patent US8304416B2
